Give Population Normal (%) for every item shown.
System: HEK-293T
experiment.notes: Multiplex assay against HEK293T
Type: toxicity, cell-based
test.conditions: human, 48 h, 1 µM, compound concentration 1 uM, replicate 2
Could you give me the number in %? Just the number is fine.

Briefly, Population Normal (%) measured for C=CC(=O)Nc1cccc(C(=O)Nc2ccc(Nc3cc(-c4[nH]c(SC)nc4C)ccn3)cc2)c1 : 97

Briefly, Population Normal (%) measured for Cl.N#Cc1ccc2[nH]cc(CCCCN3CCN(c4ccc5oc(C(N)=O)cc5c4)CC3)c2c1 [VILAZODONE HYDROCHLORIDE] : 95

Briefly, Population Normal (%) measured for COc1cc(-n2cnc3cc(-c4ccc(Cl)cc4)sc3c2=O)ccc1OCCN1CCCC1 : 96

Briefly, Population Normal (%) measured for CN1CCC[C@@H]1CCO[C@](C)(c1ccccc1)c1ccc(Cl)cc1.O=C(O)/C=C/C(=O)O [CLEMASTINE FUMARATE] : 98

Briefly, Population Normal (%) measured for CC(C)NCC(O)COc1ccc(CCOCC2CC2)cc1.Cl (stereo not drawn) [BETAXOLOL HYDROCHLORIDE] : 97

Briefly, Population Normal (%) measured for OC1(c2ccc(Cl)cc2)CCN(Cc2c[nH]c3ccccc23)CC1 : 97

Briefly, Population Normal (%) measured for CN1CCN(c2ccc(OC(F)(F)F)c(Nc3ncc4c(n3)-c3c(c(C(N)=O)nn3CCO)CC4)c2)CC1 : 91

Briefly, Population Normal (%) measured for Nc1c(C(=O)NCc2ccc(C(=O)NCCCC3CCCCC3)cc2)cnn1-c1ccccc1 : 95

* * *

Test system: Fibroblast
experiment.notes: Incucyte cell viability with human fibroblast; note: filed as whole numbers so only -1 and 0 and 1 occur
Type: toxicity, cell-based
test.conditions: 12 h, 10 µM, compound concentration 10 uM, replicate number 1, timepoint 12 hours
Give Growth Rate for every item shown.
Number, no unit, nothing else.

Briefly, Growth Rate measured for CC1=C(C#N)C(c2ccc3[nH]nc(C)c3c2)C(C#N)=C(C)N1 [BAY-474] : 1

Briefly, Growth Rate measured for CN(C)C(=O)N[C@H]1CC[C@H](CCN2CCN(c3cccc(Cl)c3Cl)CC2)CC1.Cl [CARIPRAZINE HYDROCHLORIDE] : 0

Briefly, Growth Rate measured for CC(C)(O)CNc1ncc(-c2ccnc(Nc3ccnc(Cl)c3)n2)c(CC2CC2)n1 : 0

Briefly, Growth Rate measured for Cn1cc(C2=C(c3cn(C4CCN(Cc5ccccn5)CC4)c4ccccc34)C(=O)NC2=O)c2ccccc21 [ENZASTAURIN] : 0

Briefly, Growth Rate measured for CCc1cc(C(C)=O)c(O)cc1OCCCCCC(C)(C)c1nn[nH]n1 [LY-255283] : 0

Briefly, Growth Rate measured for O=C(NCCCC1CCCCC1)c1ccc(CNC(=O)c2cnn(-c3ccccc3)c2C(F)(F)F)cc1 [SR-321] : 1

Briefly, Growth Rate measured for CN(C)S(=O)(=O)c1ccc(NC(=S)N2CCC(C(O)(c3ccccc3)c3ccccc3)CC2)cc1 : 0

Briefly, Growth Rate measured for C[C@@H](NCCCc1cccc(C(F)(F)F)c1)c1cccc2ccccc12.Cl [CINACALCET HYDROCHLORIDE] : 0

Briefly, Growth Rate measured for Cn1cncc1[C@@](O)(COc1ccc(C#N)cc1-c1ccc(OC(F)(F)F)cc1)c1ccc(C#N)cc1 [A-108] : 0

Briefly, Growth Rate measured for Clc1cccc(-c2nnnn2Cc2cccnc2)c1Cl : 0

Briefly, Growth Rate measured for CC(=O)Nc1c(C(C)=O)c(=O)n(C)c2nc(-c3ccc(Cl)cc3Cl)c(-c3ccc(Cl)cc3)cc12 [NAPHTHYRIDINONE] : 0

Briefly, Growth Rate measured for c1cn2cc(-c3ccc4cn[nH]c4c3)nc(Nc3ccc(N4CCOCC4)cc3)c2n1 [ENTOSPLETINIB] : 0

Briefly, Growth Rate measured for O=C1NCN(c2ccccc2)C12CCN(CCCOc1ccc(F)cc1)CC2 [SPIRAMIDE] : 0

Briefly, Growth Rate measured for Cc1cc(C)cc(-c2cnc3cc(Cl)c(-c4cccc(O)c4)cc3c2OCCCN)c1 : 0

Briefly, Growth Rate measured for C[C@@H]1CCN(C(=O)CC#N)C[C@@H]1N(C)c1ncnc2[nH]ccc12.O=C(O)CC(O)(CC(=O)O)C(=O)O [TOFACITINIB CITRATE] : 1

Briefly, Growth Rate measured for NC(=O)Nc1cc(-c2cccc(F)c2)sc1C(=O)N[C@H]1CCCNC1 [AZD-7762] : 0

Briefly, Growth Rate measured for COc1cc(-n2cnc3cc(-c4ccc(Cl)cc4)sc3c2=O)ccc1OCCN1CCCC1 : 0
